system: Hamigera; assay: antimycotic activity, paper disk inhibition circle; format: cell-based; conditions: 48 h; 8 mm paper disk, 3 mg/ml, 37° C., 2 days; read-out: Growth inhibition Hamigera
measured metric: zone of inhibition at 3000 µg/mL

{"compound structure string": "CCCCCCCCCCCCOCCOCCOCCOP(=O)([O-])OCC[n+]1ccccc1", "zone of inhibition at 3000 µg/mL": "10 to 20 mm"}
{"compound structure string": "CCCCCCCCCCCCOCCOCCOCCOCCOCCOP(=O)([O-])OCC[n+]1ccccc1", "zone of inhibition at 3000 µg/mL": "< 8 mm"}
{"compound structure string": "CCCCCCCCCCCCOCCOCCOCCOP(=O)(O)OCCN", "zone of inhibition at 3000 µg/mL": "10 to 20 mm"}
{"compound structure string": "CCCCCCCC/C=C\\CCCCCCCCOCCOCCOP(=O)([O-])OCC[N+](C)(C)C", "zone of inhibition at 3000 µg/mL": "> 20 mm"}
{"compound structure string": "CCCCCCCCCCCCOCCOCCOP(=O)([O-])OCC[n+]1ccccc1", "zone of inhibition at 3000 µg/mL": "10 to 20 mm"}

Task: State the recorded zone of inhibition at 3000 µg/mL for this entry: `CCCCCCCCCCCCOCCOCCOCCOCCOP(=O)(O)OCCN`
Result: 10 to 20 mm

Task: Which zone of inhibition at 3000 µg/mL value belongs to `CCCCCCCCCCCCOCCOCCOP(=O)(O)OCCN` ?
Result: 10 to 20 mm

---

Below, each entry is listed with its recorded MIC.
test system: Leptosphaeria salvinii; assay: antifungal activity, serial dilution method; format: cell-based; details: Nakataea oryzae; Leptosphaeria salvinii (rice stem rot); 1% glucose-bouillon agar; read-out: MIC

{"compound structure string": "CCCCCCCCCCCCOCCOCCOP(=O)([O-])OCC[N+](C)(C)C", "MIC": "6.25 µg/mL"}
{"compound structure string": "CCCCCCCCCCCCOCCOCCOP(=O)([O-])OCC[n+]1ccccc1", "MIC": "25 µg/mL"}

Task: Quick one: MIC of `CCCCCCCCCCCCCCOCCOCCOP(=O)([O-])OCC[N+](C)(C)C` ?
Result: 6.25 µg/mL

Task: Query: MIC; subject: `CCCCCCCCCCCCOCCOCCOCCOP(=O)([O-])OCC[n+]1ccccc1`
Result: 25 µg/mL

---

tested on: Tetrahymena pyriformis W strain; test: antiprotozoal activity, broth dilution method; format: cell-based; details: 28° C., 44-48 hours, pH 7.0, read-out: Growth inhibition MIC Tetrahymena
measured metric: MIC

Some solved entries appear below for comparison.
{"molecule": "CCCCCCCC/C=C\\CCCCCCCCOCCOCCOP(=O)(O)OCCN [Example 5]", "measured metric": "MIC", "result": "4 µg/mL"}
{"molecule": "CCCCCCCCCCCCCCOCCOCCOP(=O)([O-])OCC[N+](C)(C)C [Example 26]", "measured metric": "MIC", "result": "0.2 µg/mL"}
{"molecule": "CCCCCCCCCCOCCOCCOP(=O)(O)OCCN [Example 22]", "measured metric": "MIC", "result": "4 µg/mL"}

Task: Which MIC is reported with Tetrahymena pyriformis W strain for this entry: CCCCCCCCCCCCOCCOCCOCCOCCOCCOP(=O)([O-])OCC[N+](C)(C)C [Example 3] ?
Result: > 4 µg/mL

Task: Notebook entry, Tetrahymena pyriformis W strain assay: MIC of CCCCCCCCCCCCOCCOCCOCCOP(=O)([O-])OCC[n+]1ccccc1 [Example 16] = ?
Result: > 4 µg/mL

Task: Form field - read-out: MIC; system: Tetrahymena pyriformis W strain; submitted item: CCCCCCCCCCCCOCCOCCOCCOCCOCCOP(=O)([O-])OCC[n+]1ccccc1 [Example 2]
Result: > 4 µg/mL

Task: Find the measured MIC: item CCCCCCCCCCCCCCOCCOCCOP(=O)(O)OCCN [Example 24, 3,6-Dioxaeicosyl 2-aminoethyl phosphate] , target or system Tetrahymena pyriformis W strain.
Result: 1 to 2 µg/mL

Task: For Tetrahymena pyriformis W strain, provide MIC of CCCCCCCCCCCCCOCCOCCOP(=O)([O-])OCC[n+]1ccccc1 [Example 28] please.
Result: 4 µg/mL

Task: Short answer please: MIC, Tetrahymena pyriformis W strain, entry CCCCCCCCCCCCOCCOCCOP(=O)(O)OCCN [Example 12]
Result: 2 to 4 µg/mL

---

Parameter: MIC. Scope: all listed entries.
test system: Leptosphaeria salvinii; experiment: antifungal activity, serial dilution method; format: cell-based; conditions: Nakataea oryzae; Leptosphaeria salvinii (rice stem rot); 1% glucose-bouillon agar; read-out: MIC
Numbers only; they are read as µg/mL.

// solved cases for MIC follow
{"compound": "CCCCCCCC/C=C\\CCCCCCCCOCCOCCOP(=O)([O-])OCC[N+](C)(C)C [Example 7]", "MIC / µg/mL": 25}
{"compound": "CCCCCCCCCCCCCOCCOCCOP(=O)([O-])OCC[N+](C)(C)C [Ex.]", "MIC / µg/mL": 12.5}

Task: // MIC lookup, key: CCCCCCCCCCCCCOCCOCCOP(=O)([O-])OCC[n+]1ccccc1 [Example 28]
Result: 12.5

---

Catalogue of MIC values
test system: Cochliobolus miyabeanus; test: antifungal activity, serial dilution method; type: cell-based; settings: Bipolaris oryzae
Respond numerically; units are µg/mL and should not be typed.

Reference set, count: 2
{"compound": "CCCCCCCCCCCCCOCCOCCOP(=O)([O-])OCC[n+]1ccccc1 [Example 28]", "measured metric": "MIC", "recorded number": 25}
{"compound": "CCCCCCCCCCCCOCCOCCOP(=O)([O-])OCC[N+](C)(C)C [Example 25]", "measured metric": "MIC", "recorded number": 25}

Task: Query: MIC; subject: CCCCCCCCCCCCCCOCCOCCOP(=O)([O-])OCC[N+](C)(C)C [Example 26]
Result: 12.5

---

tested on: Botrytis cinerea
measured metric: MIC
Show the value, then the unit it is measured in.

These recorded examples may help you get a feel for the data.
{"molecule": "CCCCCCCCCCCCOCCOCCOP(=O)([O-])OCC[N+](C)(C)C [Example 25]", "MIC": "6.25 µg/mL"}
{"molecule": "CCCCCCCCCCCCCCCCCCOCCOCCOP(=O)([O-])OCC[N+](C)(C)C [Example 18]", "MIC": "25 µg/mL"}
{"molecule": "CCCCCCCCCCCCCOCCOCCOP(=O)([O-])OCC[N+](C)(C)C [Ex.]", "MIC": "25 µg/mL"}
{"molecule": "CCCCCCCCCCCCOCCOCCOCCOP(=O)([O-])OCC[n+]1ccccc1 [Example 16]", "MIC": "12.5 µg/mL"}
{"molecule": "CCCCCCCCCCCCOCCOCCOP(=O)(O)OCCN [Example 12]", "MIC": "50 µg/mL"}

Task: Record lookup: for Botrytis cinerea, what MIC belongs to CCCCCCCCCCCCOCCOCCOP(=O)([O-])OCC[n+]1ccccc1 [Example 15] ?
Result: 12.5 µg/mL

Task: Look up MIC with Botrytis cinerea for this molecule: CCCCCCCC/C=C\CCCCCCCCOCCOCCOP(=O)([O-])OCC[N+](C)(C)C [Example 7]
Result: 6.25 µg/mL

Task: Test system Botrytis cinerea; read-out MIC; what value for CCCCCCCCCCCCCCOCCOCCOP(=O)(O)OCCN [Example 24, 3,6-Dioxaeicosyl 2-aminoethyl phosphate] ?
Result: 25 µg/mL

Task: Write down the reported MIC of CCCCCCCCCCCCCOCCOCCOP(=O)([O-])OCC[n+]1ccccc1 [Example 28] , test system: Botrytis cinerea.
Result: 12.5 µg/mL

Task: Recall the recorded MIC for CCCCCCCCCCCCCCOCCOCCOP(=O)([O-])OCC[N+](C)(C)C [Example 26] with Botrytis cinerea and state it.
Result: 6.25 µg/mL

Task: What value of MIC on Botrytis cinerea does CCCCCCCCCCCCOCCOCCOCCOP(=O)(O)OCCN [Example 13] have?
Result: 50 µg/mL

---

test system: Tetrahymena pyriformis W strain; assay: antiprotozoal activity, broth dilution method; type: cell-based; details: 28° C., 44-48 hours, pH 7.0, read-out: Growth inhibition MIC Tetrahymena
// reported MIC for each item listed
Answer in µg/mL, number only, no unit symbol.

These recorded examples may help you get a feel for the data.
{"molecule": "CCCCCCCCCCCCOCCOCCOCCOCCOP(=O)(O)OCCN [Example 14]", "system under test": "Tetrahymena pyriformis W strain", "MIC (µg/mL)": 4}
{"molecule": "CCCCCCCCCCCCOCCOCCOCCOP(=O)(O)OCCN [Example 13]", "system under test": "Tetrahymena pyriformis W strain", "MIC (µg/mL)": 4}
{"molecule": "CCCCCCCCCCCCOCCOCCOP(=O)([O-])OCC[N+](C)(C)C [Example 25]", "system under test": "Tetrahymena pyriformis W strain", "MIC (µg/mL)": 0.4}
{"molecule": "CCCCCCCCCCCCCCOCCOCCOP(=O)([O-])OCC[n+]1ccccc1 [Example 34]", "system under test": "Tetrahymena pyriformis W strain", "MIC (µg/mL)": 4}
{"molecule": "CCCCCCCCCCCCOCCOCCOP(=O)([O-])OCC[n+]1ccc2ccccc2c1 [Example 32]", "system under test": "Tetrahymena pyriformis W strain", "MIC (µg/mL)": 4}

Task: Provide the documented MIC with Tetrahymena pyriformis W strain as the system for CCCCCCCCCCOCCOCCOP(=O)([O-])OCC[N+](C)(C)C [Example 21]
Result: 2

Task: Given the entry CCCCCCCC/C=C\CCCCCCCCOCCOCCOP(=O)([O-])OCC[N+](C)(C)C [Example 7] , what MIC was observed with Tetrahymena pyriformis W strain?
Result: 0.4
